# Tested on: Aβ42
# Experimental details: Method 2: Aβ42 Alphalisa on supernatant of SKNBE2 cells carrying APP 695 wild type
# Type: cell-based
# Measurement parameters: Homo sapiens, SKNBE2 cells APP 695 wild type, overnight
pIC50: −log10 of the molar value.
Classification field: TRUE = pIC50 at or over 7; FALSE = pIC50 under 7.

compound="CCOc1cc(C)c(-n2nc3c(Nc4ccc(-n5cnc(C)c5)c(OC)c4)cccc3c2C)cc1C(C)C [Compound 14]" class_assignment=TRUE

**Q:** Answer whether pIC50 of COc1cccc(-n2nc3c(Nc4ccc(-c5cnc(C)o5)cc4)nccc3c2C)c1 [Compound 35] is greater than or equal to 7.
**A:** FALSE

**Q:** Also Cc1ncc(-c2ccc(Nc3cccc4cn(-c5ccc6c(c5)OCO6)nc34)cc2)o1 [Compound 34] ?
**A:** FALSE

**Q:** Also COc1ccc(C)c(-n2nc3c(Nc4ccc(-c5cnc(C)o5)nc4)cccc3c2C)c1 [Compound 45] ?
**A:** TRUE

---

# System: Aβ42
# Experimental details: Method 2: Aβ42 Alphalisa on supernatant of SKNBE2 cells carrying APP 695 wild type
# Format: cell-based
# Measurement parameters: Homo sapiens, SKNBE2 cells APP 695 wild type, overnight
# Experimental: Screening was carried out using SKNBE2 cells carrying the APP 695—wild type, grown in Dulbecco's Modified Eagle's Medium/Nutrient mixture F-12 (DMEM/NUT-mix F-12) (HAM) provided by Invitrogen (cat no. 10371-029) containing 5% Serum/Fe supplemented with 1% non-essential amino acids, 1-glutamine 2 mM, Hepes 15 mM, penicillin 50 U/ml (units/ml) en streptomycin 50 μg/ml. […] Aβtotal and Aβ42 concentrations were quantified in the cell supernatant using the Aphalisa technology (Perkin Elmer). […]
Measured property: IC50 (nM)
Report as a plain number; the unit nM is understood.

compound=Cc1ncc(-c2ccc(Nc3cccc4c(C)n(-c5ccc(F)cc5F)nc34)cc2)o1 unit=nM recorded_result=166

**Q:** // returns reported IC50 for input COc1cc(Nc2cccc3cn(CC4CC4)nc23)ccc1-c1cnc(C)o1.Cl [Compound 38, HCl]
**A:** 234

**Q:** Also Cc1cn(-c2ccc(Nc3cncc4cn(CC(F)(F)F)nc34)cc2F)cn1 ?
**A:** 603

---

Below is a list of entries, each paired with its recorded melting point value.
Report as a plain number; the unit °C is understood.

structure=COc1nc(Nc2cc(C(C)C)nc3cn(CC(F)(F)F)nc23)ccc1-n1cnc(C)c1 unit=°C recorded_result=172.5

**Q:** // returns reported melting point for input Cc1ncc(-c2ccc(Nc3cccc4c(C)n(-c5ccc(F)cc5F)nc34)cc2)o1
**A:** 139.9

---

# System: Aβtotal
# Experimental details: Method 1: Aβtotal sandwich ELISA on media of SKNBE2 cells carrying APP 695 wild type
# Assay type: cell-based
# Measurement parameters: Homo sapiens, SKNBE2 cells APP 695 wild type, 18 hours
Measured property: IC50

structure=COc1cccc(-n2nc3c(Nc4ccc(-c5cnc(C)o5)c(OC)c4)nccc3c2C)c1 measurement_target=Aβtotal recorded_result="> 3000 nM"
structure=COc1cccc(-n2cc3cccc(Nc4ccc(-n5cnc(C)c5)c(OC)c4)c3n2)c1 measurement_target=Aβtotal recorded_result="> 3000 nM"

Could you now consider this next molecule?
**Q:** // returns reported IC50 for input CCOc1cc(C)c(-n2nc3c(Nc4ccc(-n5cnc(C)n5)c(OC)c4)cccc3c2C)cc1C(C)C
**A:** > 3000 nM
